Each entry below lists one item and its recorded Ki value.
- measuredTarget: memapsin 2 (Homo sapiens)
- Sequence (P56817 46-501): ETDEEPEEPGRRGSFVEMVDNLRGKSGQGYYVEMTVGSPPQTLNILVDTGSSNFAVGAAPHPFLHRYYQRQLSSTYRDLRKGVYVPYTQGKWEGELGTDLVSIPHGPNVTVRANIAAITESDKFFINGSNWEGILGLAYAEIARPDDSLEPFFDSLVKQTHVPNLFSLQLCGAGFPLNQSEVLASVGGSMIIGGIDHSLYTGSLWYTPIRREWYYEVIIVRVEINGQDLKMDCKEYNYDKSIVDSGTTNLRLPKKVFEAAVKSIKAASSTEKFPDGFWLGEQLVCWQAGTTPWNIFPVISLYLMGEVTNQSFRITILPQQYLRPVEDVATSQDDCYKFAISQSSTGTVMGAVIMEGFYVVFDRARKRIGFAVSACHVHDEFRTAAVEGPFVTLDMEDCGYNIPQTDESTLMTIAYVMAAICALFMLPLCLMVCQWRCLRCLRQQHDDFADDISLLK
- protocolDetails: Inhibition of memapsin 2 catalytic activity (Ki)
- Format: biochemical
- experimentalSetup: memapsin 2, pH 4, 37° C.; read-out: M2K
quantityName: Ki

[[record]]
compound = "CC(NC(=O)c1cc(C(=O)NC(Cc2ccccc2)C(O)CNCc2ccccc2)cc(N(C)S(C)(=O)=O)c1)c1ccccc1 (stereo not drawn)"
quantityname = "Ki"
valueobserved = "< 300 nM"

[[record]]
compound = "COc1cccc(F)c1CNCC(O)C(Cc1ccccc1)NC(=O)c1cc(C(=O)NC(C)c2ccccc2)cc(N(C)S(C)(=O)=O)c1 (stereo not drawn)"
quantityname = "Ki"
valueobserved = "< 300 nM"

[[record]]
compound = "CCOc1cccc(CNCC(O)C(Cc2ccccc2)NC(=O)c2cccc(C(=O)N(C)Cc3nc(C)cs3)c2)c1 (stereo not drawn)"
quantityname = "Ki"
valueobserved = "< 300 nM"

[[record]]
compound = "COc1cccc(CCNCC(O)C(Cc2ccccc2)NC(=O)c2cccc(C(=O)N(C)Cc3nc(C)cs3)c2)c1 (stereo not drawn)"
quantityname = "Ki"
valueobserved = "> 501 nM"

[[record]]
compound = "COc1cccc(CNCC(O)C(Cc2ccccc2)NC(=O)c2cc(C(=O)NC(C)c3cccnc3)cc(N(C)S(C)(=O)=O)c2)c1 (stereo not drawn)"
quantityname = "Ki"
valueobserved = "< 300 nM"

[[record]]
compound = "COc1cccc(CNCC(O)C(Cc2ccccc2)NC(=O)c2cc(C(=O)NC(C)c3ccc(F)cc3)cc(N(C)S(C)(=O)=O)c2)c1 (stereo not drawn)"
quantityname = "Ki"
valueobserved = "< 300 nM"

[[record]]
compound = "COc1cccc(CNCC(O)C(Cc2ccccc2)NC(=O)c2cccc(C(=O)NC(C)c3cccnc3)c2)c1 (stereo not drawn)"
quantityname = "Ki"
valueobserved = "> 501 nM"

[[record]]
compound = "CCc1cccc(CNCC(O)C(Cc2ccccc2)NC(=O)c2cccc(C(=O)N(C)Cc3nc(C)cs3)c2)c1 (stereo not drawn)"
quantityname = "Ki"
valueobserved = "< 300 nM"

[[record]]
compound = "Cc1cccc(CNCC(O)C(Cc2ccccc2)NC(=O)c2cccc(C(=O)N(C)Cc3nc(C)cs3)c2)c1 (stereo not drawn)"
quantityname = "Ki"
valueobserved = "> 501 nM"

[[record]]
compound = "COc1cccc(CNCC(O)C(Cc2ccccc2)NC(=O)c2cccc(C(=O)N(Cc3nc(C)cs3)C(C)C)c2)c1 (stereo not drawn)"
quantityname = "Ki"
valueobserved = "< 300 nM"

[[record]]
compound = "CC(NC(=O)c1cc(C(=O)NC(Cc2ccccc2)C(O)CNC(CO)c2ccccc2)cc(N(C)S(C)(=O)=O)c1)c1ccccc1 (stereo not drawn)"
quantityname = "Ki"
valueobserved = "< 300 nM"

[[record]]
compound = "Cc1csc(CN(C)C(=O)c2cccc(C(=O)NC(Cc3ccccc3)C(O)CNCc3cccc(OC(C)C)c3)c2)n1 (stereo not drawn)"
quantityname = "Ki"
valueobserved = "< 300 nM"

[[record]]
compound = "COc1cccc(CNCC(O)C(Cc2cc(F)cc(F)c2)NC(=O)c2cccc(C(=O)N(C)Cc3nc(C)cs3)c2)c1 (stereo not drawn)"
quantityname = "Ki"
valueobserved = "< 300 nM"

[[record]]
compound = "COc1cccc(CNCC(O)C(Cc2ccccc2)NC(=O)c2cc(C(=O)NCc3cncc(O)c3)cc(N(C)S(C)(=O)=O)c2)c1 (stereo not drawn)"
quantityname = "Ki"
valueobserved = "> 501 nM"

[[record]]
compound = "COc1cccc(CNCC(O)C(Cc2ccccc2)NC(=O)c2cc(C(=O)NC(C)c3cccc(OC)c3)cc(N(C)S(C)(=O)=O)c2)c1 (stereo not drawn)"
quantityname = "Ki"
valueobserved = "< 300 nM"

[[record]]
compound = "COc1cccc(CNCC(O)C(Cc2ccccc2)NC(=O)c2cccc(C(=O)N(Cc3ccccc3)Cc3nc(C)cs3)c2)c1 (stereo not drawn)"
quantityname = "Ki"
valueobserved = "< 300 nM"

[[record]]
compound = "CC(NCC(O)C(Cc1ccccc1)NC(=O)c1cc(C(=O)NC(C)c2ccccc2)cc(N(C)S(C)(=O)=O)c1)c1ccc(F)cc1 (stereo not drawn)"
quantityname = "Ki"
valueobserved = "< 300 nM"

[[record]]
compound = "CC(NC(=O)c1cc(C(=O)NC(Cc2ccccc2)C(O)CNCc2ccncc2)cc(N(C)S(C)(=O)=O)c1)c1ccccc1 (stereo not drawn)"
quantityname = "Ki"
valueobserved = "< 300 nM"

[[record]]
compound = "COc1cccc(CNCC(O)C(Cc2ccccc2)NC(=O)c2cc(C(=O)NC(C)C3CCCCC3)cc(N(C)S(C)(=O)=O)c2)c1 (stereo not drawn)"
quantityname = "Ki"
valueobserved = "< 300 nM"

[[record]]
compound = "COc1cccc(CNCC(O)C(Cc2ccccc2)NC(=O)c2cc(C(=O)NCc3ccccc3)cc(N(C)S(C)(=O)=O)c2)c1 (stereo not drawn)"
quantityname = "Ki"
valueobserved = "< 300 nM"

[[record]]
compound = "COc1cccc(CNCC(O)C(Cc2ccccc2)NC(=O)c2cc(C(=O)NC(C)c3ccccc3)c(C)cc2C)c1 (stereo not drawn)"
quantityname = "Ki"
valueobserved = "301 to 500 nM"

[[record]]
compound = "Cc1csc(CN(C)C(=O)c2cccc(C(=O)NC(Cc3ccccc3)C(O)CNCc3cccc(C(F)(F)F)c3)c2)n1 (stereo not drawn)"
quantityname = "Ki"
valueobserved = "< 300 nM"

[[record]]
compound = "CC(NC(=O)c1cc(C(=O)NC(Cc2ccccc2)C(O)CNCc2cn(COCC[Si](C)(C)C)cn2)cc(N(C)S(C)(=O)=O)c1)c1ccccc1 (stereo not drawn)"
quantityname = "Ki"
valueobserved = "< 300 nM"

[[record]]
compound = "CCOc1cncc(CNCC(O)C(Cc2ccccc2)NC(=O)c2cc(C(=O)NC(C)c3ccccc3)cc(N(C)S(C)(=O)=O)c2)c1 (stereo not drawn)"
quantityname = "Ki"
valueobserved = "< 300 nM"

[[record]]
compound = "CC(NC(=O)c1cc(C(=O)NC(Cc2ccccc2)C(O)CNCc2ccc3c(c2)OCO3)cc(N(C)S(C)(=O)=O)c1)c1ccccc1 (stereo not drawn)"
quantityname = "Ki"
valueobserved = "< 300 nM"

[[record]]
compound = "COC(=O)c1cccc(CNCC(O)C(Cc2ccccc2)NC(=O)c2cc(C(=O)NC(C)c3ccccc3)cc(N(C)S(C)(=O)=O)c2)c1 (stereo not drawn)"
quantityname = "Ki"
valueobserved = "> 501 nM"

[[record]]
compound = "C#Cc1cccc(CNCC(O)C(Cc2ccccc2)NC(=O)c2cccc(C(=O)N(C)Cc3nc(C)cs3)c2)c1 (stereo not drawn)"
quantityname = "Ki"
valueobserved = "< 300 nM"

[[record]]
compound = "CC(NC(=O)c1cc(C(=O)NC(Cc2ccccc2)C(O)CNCc2cncc(N(C)C)c2)cc(N(C)S(C)(=O)=O)c1)c1ccccc1 (stereo not drawn)"
quantityname = "Ki"
valueobserved = "< 300 nM"

[[record]]
compound = "CCC(NCC(O)C(Cc1ccccc1)NC(=O)c1cc(C(=O)NC(C)c2ccccc2)cc(N(C)S(C)(=O)=O)c1)c1ccccc1 (stereo not drawn)"
quantityname = "Ki"
valueobserved = "< 300 nM"

[[record]]
compound = "CC(NC(=O)c1cc(C(=O)NC(Cc2ccccc2)C(O)CNCc2cccnc2)cc(N(C)S(C)(=O)=O)c1)c1ccccc1 (stereo not drawn)"
quantityname = "Ki"
valueobserved = "< 300 nM"

